test system: Staphylococcus Aureus; test: in vitro antibacterial activity, agar dilution method (MIC); assay type: cell-based; settings: Staphylococcus aureus, strain 45; BHI agar, 20-24 hours; read-out: MIC
Overview of recorded MIC for various compounds

Worked set:
* CCC1OC(=O)CC(O)C(C)C(OC2OC(C)CC(N(C)C)C2O)C(CC=O)CC(C)C(N(C)C)CCC(C)=CC1COC(C)=O (stereo not drawn) | 3.1 µg/mL
* CCC1OC(=O)CC(O)C(C)C(OC2OC(C)CC(N(C)C)C2O)C(CC=O)CC(C)C(N(C)C)C=CC(C)=CC1COC(C)=O (stereo not drawn) | 0.39 µg/mL

Next item in the queue.
The recorded MIC with Staphylococcus Aureus for CCC1OC(=O)CC(O)C(C)C(OC2OC(C)C(O)C(N(C)C)C2O)C(CC=O)CC(C)C(N(C)C)CCC(C)=CC1COC(C)=O (stereo not drawn) was 3.1 µg/mL

====

test system: Haemophilus Influenzae; test: in vitro antibacterial activity, agar dilution method (MIC); assay type: cell-based; settings: Haemophilus influenzae, strain 747C; BHI agar, 20-24 hours; read-out: MIC
OBSERVED PROPERTY: MIC (µg/mL)
Field format: number, assumed µg/mL, no unit text.

Worked set:
• CCC1OC(=O)CC(O)C(C)C(OC2OC(C)CC(N(C)C)C2O)C(CC=O)CC(C)C(N(C)C)CCC2(C)OC2C1C (centres unmarked) [Example 2] = 2
• CCC1OC(=O)CC(O)C(C)C(OC2OC(C)C(O)C(N(C)C)C2O)C(CC=O)CC(C)C(N(C)C)CCC(C)=CC1COC(C)=O (centres unmarked) [Example 6] = 8
• CC[C@H]1OC(=O)C[C@@H](O)[C@H](C)[C@@H](O[C@@H]2O[C@H](C)C[C@H](N(C)C)[C@H]2O)[C@@H](CC=O)C[C@@H](C)C(=O)/C=C/[C@]2(C)O[C@H]2[C@@H]1C [Rosaramicin, reference compound] = 0.5
• CCC1OC(=O)CC(O)C(C)C(OC2OC(C)CC(N(C)C)C2O)C(CC=O)CC(C)C(N(C)C)CCC(C)=CC1COC(C)=O (centres unmarked) [Example 8] = 2

Next item in the queue.
The recorded MIC with Haemophilus Influenzae for CCC1OC(=O)CC(O)C(C)C(OC2OC(C)CC(N(C)C)C2O)C(CC=O)CC(C)C(N(C)C)C=CC(C)=CC1COC(C)=O (centres unmarked) [Example 5] was 2

====

system: Providencia Stuartii; assay: in vitro antibacterial activity, agar dilution method (MIC); type: cell-based; settings: Providencia stuartii; strain CMX 640; BHI agar, 20-24 hours; read-out: MIC
OBSERVED PROPERTY: MIC

The recorded MIC with Providencia Stuartii for CCC1OC(=O)CC(O)C(C)C(OC2OC(C)CC(N(C)C)C2O)C(CC=O)CC(C)C(N(C)C)CCC(C)=CC1COC(C)=O (stereo not drawn) was > 100 µg/mL

The recorded MIC with Providencia Stuartii for CCC1OC(=O)CC(O)C(C)C(OC2OC(C)C(O)C(N(C)C)C2O)C(CC=O)CC(C)C(N(C)C)C=CC(C)=CC1COC(C)=O (stereo not drawn) was > 100 µg/mL

The recorded MIC with Providencia Stuartii for CCC1OC(=O)CC(O)C(C)C(OC2OC(C)CC(N(C)C)C2O)C(CC=O)CC(C)C(N(C)C)C=CC2(C)OC2C1C (stereo not drawn) was > 100 µg/mL
